target: Ba/F3 cells EML4-ALK L1196M/G1202R (variant 1) (Homo sapiens, UniProt Q9UM73, G1202R/L1196M); construct: echinoderm microtubule-associated protein-like 4 (EML4) gene and the ALK tyrosine kinase domain; the other entry of the earlier key: EML4 (Q9HC35, Echinoderm microtubule-associated protein-like 4); assay: Ba/F3 cell proliferation assay, EML4-ALK L1196M/G1202R (variant 1); conditions: 72 hours, CellTiter-Glo
Sequence (Q9UM73 with tags, fused parts or gaps L1196M/G1202R): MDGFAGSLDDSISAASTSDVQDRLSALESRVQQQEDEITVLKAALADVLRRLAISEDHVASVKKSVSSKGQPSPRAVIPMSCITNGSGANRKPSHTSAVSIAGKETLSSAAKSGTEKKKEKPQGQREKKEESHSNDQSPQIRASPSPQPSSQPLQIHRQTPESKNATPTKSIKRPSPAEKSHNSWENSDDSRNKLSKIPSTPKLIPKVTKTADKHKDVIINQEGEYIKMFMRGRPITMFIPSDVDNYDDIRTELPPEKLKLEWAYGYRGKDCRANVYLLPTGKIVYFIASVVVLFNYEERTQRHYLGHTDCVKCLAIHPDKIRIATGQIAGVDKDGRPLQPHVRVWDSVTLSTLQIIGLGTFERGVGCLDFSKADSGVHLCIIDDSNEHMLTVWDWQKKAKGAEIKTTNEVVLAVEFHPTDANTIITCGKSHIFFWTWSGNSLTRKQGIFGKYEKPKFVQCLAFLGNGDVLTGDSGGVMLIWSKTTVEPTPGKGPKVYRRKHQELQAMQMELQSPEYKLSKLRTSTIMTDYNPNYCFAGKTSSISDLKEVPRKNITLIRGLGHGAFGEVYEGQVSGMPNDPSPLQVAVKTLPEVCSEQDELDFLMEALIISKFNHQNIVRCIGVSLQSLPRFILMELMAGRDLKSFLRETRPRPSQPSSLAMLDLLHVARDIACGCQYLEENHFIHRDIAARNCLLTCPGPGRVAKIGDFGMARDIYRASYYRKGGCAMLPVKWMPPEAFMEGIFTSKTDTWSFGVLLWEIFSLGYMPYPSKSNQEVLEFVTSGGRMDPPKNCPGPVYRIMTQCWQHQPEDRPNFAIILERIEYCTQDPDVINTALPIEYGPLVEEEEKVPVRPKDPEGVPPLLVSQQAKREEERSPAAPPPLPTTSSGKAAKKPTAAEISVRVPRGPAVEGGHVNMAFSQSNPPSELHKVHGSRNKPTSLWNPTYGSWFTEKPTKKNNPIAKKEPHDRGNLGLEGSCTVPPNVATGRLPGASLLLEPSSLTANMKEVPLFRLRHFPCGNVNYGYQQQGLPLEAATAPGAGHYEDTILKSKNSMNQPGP
RECORDED METRIC: IC50

# MOLECULE, ASSAY VALUE
records = [
    ("C[C@H]1Oc2cc(cnc2N)-c2c(cnn2CC2CC2)Cc2nn(C)nc2-c2ccc(F)cc21 [Example 69]", "0.1 to 50 nM"),
    ("CCn1ncc2c1-c1cnc(N)c(c1)O[C@H](C)c1cc(F)ccc1-c1nsnc1C2 [Example 62]", "0.1 to 50 nM"),
    ("CCn1ncc2c1-c1cnc(N)c(c1)O[C@H](C)c1cc(F)ccc1-c1cc(C)nn1C2 [Example 4]", "50 to 500 nM"),
    ("C[C@H]1Oc2cc(cnc2N)-c2c(cnn2CC(F)F)Cn2nc(Cl)cc2-c2ccc(F)cc21 [Example 55]", "50 to 500 nM"),
    ("CCn1nc(C)c2c1-c1cnc(N)c(c1)O[C@H](C)c1cc(F)ccc1-c1nn(C)nc1C2 [Example 29]", "0.1 to 50 nM"),
    ("CCn1ncc2c1-c1cnc(N)c(c1)O[C@H](C)c1cc(F)ccc1-c1c(F)cnn1C2 [Example 8]", "50 to 500 nM"),
    ("CCn1ncc2c1-c1cnc(N)c(c1)O[C@H](C)c1cc(F)ccc1-n1ccnc1C2 [Example 42]", "50 to 500 nM"),
    ("CCc1nn(C)c2c1-c1cnc(N)c(c1)O[C@H](C)c1cc(F)ccc1-c1nn(C)nc1C2 [Example 98]", "0.1 to 50 nM"),
    ("Cc1nc2n(n1)Cc1cnn(CC3CC3)c1-c1cnc(N)c(c1)O[C@H](C)c1cc(F)ccc1-2 [Example 75]", "0.1 to 50 nM"),
    ("CCn1nc(C)c2c1-c1cnc(N)c(c1)O[C@H](C)c1cc(F)ccc1-c1ncnn1C2 [Example 56]", "50 to 500 nM"),
    ("Cc1nc2c(o1)-c1ccc(F)cc1[C@@H](C)Oc1cc(cnc1N)-c1c(cnn1CC1CC1)C2 [Example 76]", "0.1 to 50 nM"),
    ("C[C@H]1Oc2cc(cnc2N)-c2c(CC3CC3)noc2Cc2nn(C)nc2-c2ccc(F)cc21 [Example 63]", "0.1 to 50 nM"),
    ("CCn1ncc2c1-c1cnc(N)c(c1)O[C@H](C)c1cc(F)ccc1-c1ncn(C)c1C2 [Example 6]", "0.1 to 50 nM"),
    ("C[C@H]1Oc2cc(cnc2N)-c2c(CC3CC3)nn(C)c2Cc2nn(C)nc2-c2ccc(F)cc21 [Example 100]", "0.1 to 50 nM"),
    ("CCn1ncc2c1-c1cnc(N)c(c1)O[C@H](C)c1cc(F)ccc1-n1nc(C)nc1C2 [Example 40]", "50 to 500 nM"),
    ("C[C@H]1Oc2cc(cnc2N)-c2c(C#N)ncn2Cc2ncccc2-c2ccc(F)cc21 [Example 19]", "0.1 to 50 nM"),
    ("C[C@H]1Oc2cc(cnc2N)-c2c(C3CCC3)nnn2Cc2nn(C)nc2-c2ccc(F)cc21 [Example 30]", "50 to 500 nM"),
    ("C[C@H]1Oc2cc(cnc2N)-c2c(CC3CC3)noc2Cn2ncnc2-c2ccc(F)cc21 [Example 67]", "50 to 500 nM"),
    ("C[C@H]1Oc2cc(cnc2N)-c2c(C#N)cnn2Cc2ncsc2-c2ccc(F)cc21 [Example 49]", "> 500 nM"),
    ("Cc1nn(CC(C)C)c2c1Cn1ncnc1-c1ccc(F)cc1[C@@H](C)Oc1cc-2cnc1N [Example 79]", "> 500 nM"),
    ("C[C@H]1Oc2cc(cnc2N)-c2c(cnn2C2CCC2)Cn2ncnc2-c2ccc(F)cc21 [Example 39]", "50 to 500 nM"),
    ("C[C@H]1Oc2cc(cnc2N)-c2c(C3CCC3)noc2Cc2nn(C)nc2-c2ccc(F)cc21 [Example 26]", "0.1 to 50 nM"),
    ("C[C@H]1Oc2cc(cnc2N)-c2c(cnn2C2CCC2)Cc2ncnn2-c2ccc(F)cc21 [Example 41]", "0.1 to 50 nM"),
    ("CCn1ncc2c1-c1cnc(N)c(c1)O[C@H](C)c1cc(F)ccc1-c1cn(C)nc1C2 [Example 9]", "0.1 to 50 nM"),
    ("CCn1nnc2c1-c1cnc(N)c(c1)O[C@H](C)c1cc(F)ccc1-c1cc(Cl)nn1C2 [Example 54]", "50 to 500 nM"),
    ("Cc1nn(CC2CC2)c2c1Cn1ncnc1-c1ccc(F)cc1[C@@H](C)Oc1cc-2cnc1N [Example 64]", "50 to 500 nM"),
    ("CCn1ncc2c1-c1cnc(N)c(c1)OC(C)c1cc(F)ccc1-c1cccnc1C2 (centres unmarked) [Example 34]", "0.1 to 50 nM"),
    ("Cc1nn(CC2CC2)c2c1Cn1nc(Cl)cc1-c1ccc(F)cc1[C@@H](C)Oc1cc-2cnc1N [Example 81]", "> 500 nM"),
    ("CCn1nc2c(n1)-c1ccc(F)cc1[C@@H](C)Oc1cc(cnc1N)-c1c(cnn1CC)C2 [Example 88]", "50 to 500 nM"),
    ("C[C@H]1Oc2cc(cnc2N)-c2c(cnn2C(F)F)Cn2nccc2-c2ccc(F)cc21 [Example 12]", "> 500 nM"),
    ("C[C@H]1Oc2cc(cnc2N)-c2c(cnn2CC2CC2)Cc2ncc(F)cc2-c2ccc(F)cc21 [Example 72]", "0.1 to 50 nM"),
    ("CCn1ncc2c1-c1cnc(N)c(c1)O[C@H](C)c1cc(F)ccc1-c1c(C#N)cnn1C2 [Example 3]", "50 to 500 nM"),
]
